Test system: P. aeruginosa ATCC 27853
Format: cell-based, Pseudomonas aeruginosa
Settings: ATCC 27853, 24 h
Where a SMILES comes first, the peptide text is derived from it. The star is where a group is joined. Myristoyl = CCCCCCCCCCCCCC(=O)*; Lauroyl = CCCCCCCCCCCC(=O)*; Octanoyl = CCCCCCCC(=O)*
measured-endpoint: MIC (µg/mL)
# unit: µg/mL | format: bare number

Look over these answered cases.
>  <compound>
CCCCCCCC(=O)N[C@@H](CCCNC(=N)N)C(=O)N[C@@H](Cc1ccccc1)C(=O)N[C@@H](Cc1c[nH]c2ccccc12)C(=O)N[C@@H](CCCNC(=N)N)C(N)=O [Lp-F^Oct, Oct-RFWR-NH2] (Octanoyl-RFWR-NH2)

>  <MIC, µg/mL>
100

$$$$
>  <compound>
CCCCCCCCCCCC(=O)N[C@@H](CCCNC(=N)N)C(=O)N[C@@H](CCCNC(=N)N)C(=O)N[C@H](C(=O)N[C@@H](Cc1c[nH]c2ccccc12)C(N)=O)[C@@H](C)CC [Lau-RRIW, Lau-RRIW-NH2] (Lauroyl-RRIW-NH2)

>  <MIC, µg/mL>
12.5

$$$$

Request body: readout MIC, system P. aeruginosa ATCC 27853, query CCCCCCCCCCCC(=O)N[C@@H](CCCNC(=N)N)C(=O)N[C@@H](Cc1c[nH]cn1)C(=O)N[C@@H](Cc1c[nH]c2ccccc12)C(=O)N[C@@H](CCCNC(=N)N)C(N)=O [Lp-H, Lau-RHWR-NH2] (Lauroyl-RHWR-NH2) . Return the value.
100

Give recorded MIC with P. aeruginosa ATCC 27853 for the following compound: CCCCCCCCCCCCCC(=O)N[C@@H](CCCNC(=N)N)C(=O)N[C@@H](Cc1ccccc1)C(=O)N[C@@H](Cc1c[nH]c2ccccc12)C(=O)N[C@@H](CCCNC(=N)N)C(N)=O [Lp-F^Myr, Myr-RFWR-NH2] (Myristoyl-RFWR-NH2)
50

----------
Catalogue of Retention time readings, one per entry.
Assay: RP-HPLC retention time (hydrophobicity)
Format: physicochemical
Conditions: stated to reliably reflect the hydrophobicity in aqueous solution, assessed and provided by GenScript
Where a SMILES comes first, the peptide text is derived from it. The star is where a group is joined. Lauroyl = CCCCCCCCCCCC(=O)*
Only the number, expressed in min, is required.

Use the examples below as a reference point.
>  <compound>
CCCCCCCCCCCC(=O)N[C@@H](CCCNC(=N)N)C(=O)N[C@@H](CO)C(=O)N[C@@H](Cc1c[nH]c2ccccc12)C(=O)N[C@@H](CCCNC(=N)N)C(N)=O [Lp-S, Lau-RSWR-NH2] (Lauroyl-RSWR-NH2)

>  <measured-endpoint>
Retention time

>  <meas-value>
16.117

$$$$
>  <compound>
CCCCCCCCCCCC(=O)N[C@@H](CCCNC(=N)N)C(=O)N[C@H](C(=O)N[C@@H](Cc1c[nH]c2ccccc12)C(=O)N[C@@H](CCCNC(=N)N)C(N)=O)C(C)C [Lp-V, Lau-RVWR-NH2] (Lauroyl-RVWR-NH2)

>  <measured-endpoint>
Retention time

>  <meas-value>
19.317

$$$$
>  <compound>
CCCCCCCCCCCC(=O)N[C@@H](CCCNC(=N)N)C(=O)N[C@@H](C)C(=O)N[C@@H](Cc1c[nH]c2ccccc12)C(=O)N[C@@H](CCCNC(=N)N)C(N)=O [Lp-A, Lau-RAWR-NH2] (Lauroyl-RAWR-NH2)

>  <measured-endpoint>
Retention time

>  <meas-value>
18.931

$$$$

// switching to the query compound
Give the measured Retention time of CCCCCCCCCCCC(=O)N[C@@H](CCCNC(=N)N)C(=O)N[C@@H](CCCNC(=N)N)C(=O)N[C@@H](Cc1ccccc1)C(=O)N[C@@H](Cc1c[nH]c2ccccc12)C(=O)N[C@@H](CCCNC(=N)N)C(=O)N[C@@H](CCCNC(=N)N)C(N)=O [Lp-F^RR, Lau-RRFWRR-NH2] (Lauroyl-RRFWRR-NH2) .
22.087

FYI, the data here is from paper PMC6383929.
